Biological target: T1, MHC class I molecule B*0702 (biotin (bound to streptavidin-coated plate))
T1 construct: also called B7; HLA-B7
Experiment: iTopia iScore
Description: The 9 mers were tested for Peptide Binding, Off Rate and Affinity using iTopia Epitope Discovery System in accordance with the manufacturer's instructions. Briefly, 96 well microtitre plates coated with MHC molecules representing different MHC alleles are used to identify candidate peptides. […] Determinations are performed in duplicate using an ELISA plate reader and included allele specific positive controls. […]
Reported iScore values for a set of binders
Write the number on its own, no unit after it.

[
  {
    "binder": "LCECSEAAR [5T4 9-mer peptide 33 LCECSEAAR]",
    "iScore": 0
  },
  {
    "binder": "RLDEVRAGA [5T4 9-mer peptide 65 RLDEVRAGA]",
    "iScore": 0.032
  },
  {
    "binder": "RDVLAQLPS [5T4 9-mer peptide 114 RDVLAQLPS]",
    "iScore": 0
  }
]

Continue with the binder presented below.
[ask] Input ARLALVLLG [5T4 9-mer peptide 10 ARLALVLLG] , output reported iScore.
[reply] 0
